assay: Inhibition of coenzyme Q10 binding to cytochrome bc1 complex (unknown origin)
assay-endpoint: pKi
In simple prose, pKi is minus the logarithm base ten of a concentration in moles per litre.

What does the record list as pKi for O=C1C(O)=C([C@H]2CC[C@H](c3ccc(Cl)cc3)CC2)C(=O)c2ccccc21 ?
8.05

###

experiment: Protein binding in human plasma; format: ADME, cell-free; settings: read-out: PPB
assay-endpoint: fraction unbound

What does the record list as fraction unbound for O=C1C(O)=C([C@H]2CC[C@H](c3ccc(Cl)cc3)CC2)C(=O)c2ccccc21 ?
< 0.005

Cited source for all entries: ChEMBL document CHEMBL3580619
